# assay-method-text: Concentrations of LOU064 in blood, PCA study
# Format: in vivo, mice
# applied-conditions: BALB/c, mouse, whole blood, oral; 3 mg/Kg p.o., 2.5 hours after second dose, low-dose IgE sensitization, Mean ± SD (n = 5)
quantity-name: concentration at 2.5 h (nM)
The figure you give is taken to be in nM; do not add the unit.

**Q:** Report concentration at 2.5 h for C=CC(=O)N(C)CCOc1c(N)ncnc1-c1cc(F)cc(NC(=O)c2ccc(C3CC3)cc2F)c1C [LOU064] please.
**A:** 7

====

# System: LAD2 cells
# assay-method-text: FcER-induced mast cell degranulation in LAD2 cells
# Assay type: cell-based
# applied-conditions: Homo sapiens, n=3, read-out: IC50, IgE/FcER-induced mast cell degranulation (β-tryptase)
# Text: Rationale and method: The human mastocytosis cell line LAD2 expresses FcERI and upon crosslinking of the receptor the cells degranulate and release inflammatory mediators like β-tryptase and hexosaminidase (Wernersson et al. 2014, Immunology; 14 (7): 478-94). […] After one hour, supernatants were collected and analyzed for B-tryptase levels.
quantity-name: IC50 (nM)
Reply with just the number (in nM).

**Q:** Give the reported IC50 for "C=CC(=O)N(C)CCOc1c(N)ncnc1-c1cc(F)cc(NC(=O)c2ccc(C3CC3)cc2F)c1C" (system: LAD2 cells).
**A:** 7

Each recorded value in this set is attributed to patent US20250032488A1.
